Reference source: paper PMC4029082

ASSAY_TARGET: Rsanα1 nicotinic acetylcholine receptor α subunit (Rhipicephalus sanguineus, UniProt V9Z9T0)
Construct: full-length Rsanα1 (GenBank KF695387) expressed in Xenopus laevis oocytes; with chicken β2 nAChR subunit
Sequence (V9Z9T0 45-525): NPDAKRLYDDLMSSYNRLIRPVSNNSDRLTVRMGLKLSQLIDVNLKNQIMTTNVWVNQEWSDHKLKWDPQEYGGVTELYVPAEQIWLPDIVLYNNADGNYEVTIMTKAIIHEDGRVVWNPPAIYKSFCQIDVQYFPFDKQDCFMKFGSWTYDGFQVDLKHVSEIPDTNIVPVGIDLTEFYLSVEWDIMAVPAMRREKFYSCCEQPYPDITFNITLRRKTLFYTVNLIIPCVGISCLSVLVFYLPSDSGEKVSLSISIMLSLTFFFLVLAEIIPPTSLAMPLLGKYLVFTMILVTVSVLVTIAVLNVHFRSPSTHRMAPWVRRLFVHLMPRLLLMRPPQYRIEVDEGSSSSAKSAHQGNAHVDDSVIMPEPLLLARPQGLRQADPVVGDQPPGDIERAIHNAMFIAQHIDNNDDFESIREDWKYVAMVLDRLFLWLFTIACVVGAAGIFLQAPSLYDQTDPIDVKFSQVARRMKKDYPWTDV
Sequence (P09484 19-491 partner): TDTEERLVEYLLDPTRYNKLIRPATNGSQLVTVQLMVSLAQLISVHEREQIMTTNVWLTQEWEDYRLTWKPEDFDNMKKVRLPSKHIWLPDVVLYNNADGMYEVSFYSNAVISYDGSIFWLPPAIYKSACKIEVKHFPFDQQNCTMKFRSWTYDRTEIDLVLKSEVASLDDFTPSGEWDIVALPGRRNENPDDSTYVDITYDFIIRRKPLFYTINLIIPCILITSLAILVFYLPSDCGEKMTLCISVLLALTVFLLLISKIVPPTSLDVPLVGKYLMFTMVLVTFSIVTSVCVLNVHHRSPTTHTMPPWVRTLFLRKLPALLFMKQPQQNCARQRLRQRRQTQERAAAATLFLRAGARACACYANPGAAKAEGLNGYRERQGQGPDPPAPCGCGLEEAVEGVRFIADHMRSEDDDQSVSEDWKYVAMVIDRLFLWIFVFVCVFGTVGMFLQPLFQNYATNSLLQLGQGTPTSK
EXPERIMENT_DESCRIPTION: two-electrode voltage clamp in Xenopus oocytes, concentration-response curve (agonist)
METRIC: EC50 (µM)
// note: answer is a bare numeric in µM

Fill blank: measured EC50 of the compound CC(=O)OCC[N+](C)(C)C is ____. 10.7
